# experimentSummary: protein stability index of a GFP-peptide fusion (yeast GPS) (PSI 1-4); higher = more stable; sorted into four equal gates, so the index is relative within each strain
# testConditions: pdr5∆
Categories are assigned from the measured protein stability index using these intervals: one (below 2), two (2 to below 3), three (3 or more)

Examples from the recorded data:
{"columns": ["sequence", "cat"],
 "data": [
  ["VGLKNYDPQRDKRFSGS [RPL1A]", "three"],
  ["NFNSSAPIADDNHSGDA [DSN1]", "two"],
  ["DTKKVKESPANDQASNE [YIL149C/MLP2]", "three"],
  ["NINSTDKSIDTSSLQLY [YML103C/NUP188]", "two"]
]}

QUERY: Exercise: read the entry KNESATINEMMKHLGRS [FAS2] and state which class it falls under.
RESULT: two

QUERY: Kindly state the category for this sequence: GSQIKFIVVPDLLKNAP [SMD3]
RESULT: two
